Test system: SNB-75
TEST_DETAILS: NCI tumour cell line growth inhibition, 48 h
Activity calls are given as the source filed them. Rule as the data show it: active = GI50 up to about 1.1 µM and inactive = higher.
Output constraint: value belongs to TRUE = active, FALSE = inactive

Record excerpt, results attached:
{"COMPOUND": "Nc1ccccc1Nc1ccccc1C(=O)[O-].Nc1ccccc1Nc1ccccc1C(=O)[O-].[Zn+2]", "CLASSIFICATION": "FALSE"}
{"COMPOUND": "C=C1[C@H](OCC(C)C)[C@@H](OC(=O)C(C)CC)[C@@H](O)C(C)(C)/C=C/[C@H](C)C(=O)[C@@]2(O)C[C@H](C)[C@H](O)[C@@H]2[C@H]1OC(=O)C(C)CC (stereo not given in full)", "CLASSIFICATION": "FALSE"}
{"COMPOUND": "O=C1NNC(=O)c2ccccc2SSc2ccccc2C(=O)NNC(=O)c2ccccc2SSc2ccccc21", "CLASSIFICATION": "FALSE"}
{"COMPOUND": "CCOC(=O)c1ccc(NC(=O)SCCC(=O)O)cc1", "CLASSIFICATION": "TRUE"}
{"COMPOUND": "Cc1cc(C)c(S(=O)(=O)N(CCCN)OCCCN)c(C)c1", "CLASSIFICATION": "FALSE"}

Attention now turns to another entry.
What did the test return for O=C(O)c1ccc2nc(-c3ccccn3)c(-c3ccccn3)nc2c1 ? FALSE

Where do these numbers come from? They come from ChEMBL document CHEMBL1201862.
